Cited source: patent US12600726B2

Molecular target: Rat M4 (Rattus norvegicus, UniProt P08485)
Construct: expressed in transfected cells; host or cells: CHO-K1 (ATCC), stably expressing M4 and Gqi5
Sequence (P08485 whole entry): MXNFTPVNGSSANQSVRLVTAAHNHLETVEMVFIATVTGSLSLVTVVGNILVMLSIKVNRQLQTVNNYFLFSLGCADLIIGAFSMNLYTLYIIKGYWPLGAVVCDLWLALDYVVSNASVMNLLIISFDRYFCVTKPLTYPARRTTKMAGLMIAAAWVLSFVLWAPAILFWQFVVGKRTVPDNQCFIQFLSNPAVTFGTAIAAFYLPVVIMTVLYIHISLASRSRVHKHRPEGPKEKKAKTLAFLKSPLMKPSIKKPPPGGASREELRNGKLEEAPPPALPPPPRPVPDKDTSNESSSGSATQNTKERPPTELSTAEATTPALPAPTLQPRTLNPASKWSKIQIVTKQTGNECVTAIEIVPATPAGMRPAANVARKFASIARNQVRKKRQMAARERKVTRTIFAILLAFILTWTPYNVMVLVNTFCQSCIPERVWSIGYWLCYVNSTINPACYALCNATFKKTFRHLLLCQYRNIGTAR
Assay: mAChR M4 cell-based functional calcium flux assay (rat M4/Gqi5/CHO cells)
Conditions: decrease of the response to an EC80 concentration of acetylcholine
Method: Human, rat, or mouse M4. cDNA, along with the chimeric G protein Gqi5, were transfected into Chinese hamster ovary (CHO-K1) cells purchased from the American Type Culture Collection using Lipofectamine2000. […] Calcium flux was measured using the Functional Drug Screening System (FDSS) 6000 or 7000 (Hamamatsu Corporation, Tokyo, Japan) as an increase in the fluorescent static ratio. […] Agonist activity was analyzed as a concentration-dependent increase in calcium mobilization upon compound addition. […]
Value type: IC50 (nM)

I: CC(=O)Nc1ccc(-c2nnc(NCC3CC34CCN(CCC(C)(C)C)CC4)c(C)c2C)cc1 (stereo not drawn)
II: CC(C)(C)CCN1CCC2(CC1)CC2CNc1ccc(-c2ccccc2OC(F)(F)F)nn1 (stereo not drawn)
Problem: Compare the recorded IC50 of I and II ; state which is larger. Field: selected label. Fill in the label of the entry you choose.
Result: II
(II: 387 nM, I: 15 nM)
